Tested on: IL-1b
Method Summary: Human Monocyte IL-1b Assay
Format: cell-based
Study Conditions: Homo sapiens, Monocyte, fresh human whole blood; compound 0.5 h, 100 ng/mL LPS 3.5 h at 37° C., 5 mM ATP 45 min; IL-1b in supernatant by ELISA
Experimental: Example 46: Human Monocyte IL-1b Assay Serially diluted testing compounds were incubated with […] of fresh human whole blood for 0.5 hours. Cells were primed with 100 ng/mL lipopolysaccharide (LPS) for 3.5 hours at 37° C. followed by stimulation with 5 mM ATP for an additional 45 minutes. The concentration of IL-1b concentration in the supernatant was determined with commercially available ELISA kits. […]
Quantity Measured: IC50

Cc1cc([C@H](O)[C@@H]2CCCN(C(C)C)C2)nnc1-c1ccc(C(F)(F)F)cc1O [Compound 41] :: < 500 nM
Cc1cc(C(O)c2cccnc2)nnc1-c1ccc(C(F)(F)F)cc1O (stereo not drawn) [Compound 10] :: 3000 to 10000 nM
Cc1cc(C)c(-c2ccc(C(O)C3CCCN(C)C3)nn2)c(O)c1 (stereo not drawn) [Compound 19] :: < 500 nM
Cc1cc(C(O)C2CCCN(C)C2)nnc1-c1ccc(C(F)(F)F)cc1O (stereo not drawn) [Compound 11] :: < 500 nM
Cc1cc([C@H](O)[C@@H]2CCCN(C3CC3)C2)nnc1-c1ccc(C(F)(F)F)cc1O [Compound 25] :: < 500 nM

Provide the reported IC50 of each entry below, same order.
1. Cc1cc(C(O)C2CCC3CCCN3C2)nnc1-c1ccc(C(F)(F)F)cc1O (stereo not drawn) [Compound 38]
2. Cc1cc(C(O)[C@@H]2CCN(C)C2)nnc1-c1ccc(C(F)(F)F)cc1O (stereo partly drawn) [Compound 26]

**A:**
1: 500 to 3000 nM; 2: < 500 nM

Please state, for each entry, its recorded IC50.
1. Cc1c(C(=O)C2CCCN(C)C2)nnc(-c2ccc(C(F)(F)F)cc2O)c1C (stereo not drawn) [Compound 2]
2. Cc1c(-c2ccc(C(F)(F)F)cc2O)nnc(C(F)c2cccnc2)c1C (stereo not drawn) [Compound 4]
3. Cc1cc([C@H](O)C2CN3CCC2CC3)nnc1-c1ccc(C(F)(F)F)cc1O (stereo partly drawn) [Compound 28A]

**A:**
1. 500 to 3000 nM
2. 3000 to 10000 nM
3. < 500 nM

For each of the compounds below, state IC50.
1. CC(c1nnc(-c2ccc(C(F)(F)F)cc2O)c2ccccc12)C1CCCNC1 (stereo not drawn) [Compound 22]
2. Cc1cc([C@@H](O)[C@]2(C)CCCN(C)C2)nnc1-c1ccc(C(F)(F)F)cc1O [Compound 27B]
3. Cc1cc(C(=O)c2cccnc2)nnc1-c1ccc(C(F)(F)F)cc1O [Compound 13]
4. Oc1cc(C(F)(F)F)ccc1-c1ccc(CC2(O)CCCNC2)nn1 (stereo not drawn) [Compound 21]

**A:**
1. < 500 nM
2. 3000 to 10000 nM
3. 500 to 3000 nM
4. 3000 to 10000 nM

For each listed entry, give its IC50.
1. Cc1cc(O)c(-c2ccc(C(O)C3CCCN(C)C3)nn2)c(F)c1 (stereo not drawn) [Compound 8]
2. Cc1cc([C@H](O)[C@]2(C)CCCN(C)C2)nnc1-c1ccc(C(F)(F)F)cc1O [Compound 27A]
3. Cc1c(-c2ccc(C(F)(F)F)cc2O)nnc(C(O)C2CCCN(C)C2)c1C (stereo not drawn) [Compound 1]
4. COc1cc(C(F)(F)F)ccc1-c1nnc(C(O)C2CN(C)C2)cc1C (stereo not drawn) [Compound 30]

**A:**
1: < 500 nM; 2: 500 to 3000 nM; 3: 500 to 3000 nM; 4: 3000 to 10000 nM

====

Please respond with reported IC50 for every item in the list.
Tested on: IL-1b
Method Summary: Human Monocyte IL-1b Assay
Format: cell-based
Study Conditions: Homo sapiens, Monocyte, fresh human whole blood; compound 0.5 h, 100 ng/mL LPS 3.5 h at 37° C., 5 mM ATP 45 min; IL-1b in supernatant by ELISA

List reported IC50 for each of these molecules:
1. CN1CCC(=O)C(C(O)c2ccc(-c3ccc(C(F)(F)F)cc3O)nn2)C1 (stereo not shown)
2. COc1cc(C(F)(F)F)ccc1-c1nnc([C@H](O)[C@@H]2CCCN(C)C2)cc1C

**A:**
1. 3 to 10 µM
2. < 0.5 µM

Below are 6 molecules. Give each one its IC50.
1. CN1CCC[C@@H]([C@@H](O)c2nnc(-c3ccc(C(F)(F)F)cc3O)c3c2CCC3)C1 (racemic) [Compound 43A]
2. Cc1cc(C(O)C2CCC3CCC2N3C)nnc1-c1ccc(C(F)(F)F)cc1O (stereo not shown)
3. Cc1c(CC2CCCN(C)C2)nnc(-c2ccc(C(F)(F)F)cc2O)c1C (stereo not shown)
4. Cc1c(-c2ccc(C(F)(F)F)cc2O)nnc(C(C)(O)C2CCCN(C)C2)c1C (stereo not shown)
5. Cc1cc(C(=O)C2CCCN(C)C2)nnc1-c1ccc(C(F)(F)F)cc1O (stereo not shown)
6. Cc1cc(C(O)[C@@H]2CCCN(C)C2)nnc1-c1cc(F)c(C(F)(F)F)cc1O (stereo partly shown)

**A:**
["< 0.5 µM", "< 0.5 µM", "< 0.5 µM", "< 0.5 µM", "< 0.5 µM", "< 0.5 µM"]

====

Test system: IL-1b
Method Summary: Human Monocyte IL-1b Assay
Type: cell-based
Study Conditions: Homo sapiens, Monocyte, fresh human whole blood; compound 0.5 h, 100 ng/mL LPS 3.5 h at 37° C., 5 mM ATP 45 min; IL-1b in supernatant by ELISA
Description: Example 46: Human Monocyte IL-1b Assay Serially diluted testing compounds were incubated with […] of fresh human whole blood for 0.5 hours. Cells were primed with 100 ng/mL lipopolysaccharide (LPS) for 3.5 hours at 37° C. followed by stimulation with 5 mM ATP for an additional 45 minutes. The concentration of IL-1b concentration in the supernatant was determined with commercially available ELISA kits. […]
Quantity Measured: IC50

Cc1cc(C(=NO)C2CCCN(C)C2)nnc1-c1ccc(C(F)(F)F)cc1O (stereo not shown) :: < 500 nM
COC(c1nnc(-c2ccc(C(F)(F)F)cc2O)c(C)c1C)C1CCCN(C)C1 (stereo not shown) :: 500 to 3000 nM
CCN1CCC[C@@H]([C@@H](O)c2cc(C)c(-c3ccc(C(F)(F)F)cc3O)nn2)C1 :: < 500 nM

# context switch: different compound, same IC50
**Q:** Bench note: what IC50 did Cc1cc([C@@H](O)[C@@H]2CCCN(C)C2)nnc1-c1ccc(C(F)(F)F)cc1O [Compound 17A] show?
**A:** < 500 nM

====

Test system: IL-1b
Method Summary: Human Monocyte IL-1b Assay
Format: cell-based
Study Conditions: Homo sapiens, Monocyte, fresh human whole blood; compound 0.5 h, 100 ng/mL LPS 3.5 h at 37° C., 5 mM ATP 45 min; IL-1b in supernatant by ELISA
Quantity Measured: IC50

The cases that follow already have their IC50 on record.
Cc1cc(C(O)C23CC(CN(C)C2)C3)nnc1-c1ccc(C(F)(F)F)cc1O (centres unmarked) [Compound 35] :: 500 to 3000 nM
CN1CCCC(C(O)c2nnc(-c3ccc(C(F)(F)F)cc3O)c3ccccc23)C1 (centres unmarked) [Compound 9] :: < 500 nM
Cc1cc([C@@H](O)C2CN3CCC2CC3)nnc1-c1ccc(C(F)(F)F)cc1O (some centres unmarked) [Compound 28B] :: 500 to 3000 nM
Cc1cc(C(O)C2CCCCN2C)nnc1-c1ccc(C(F)(F)F)cc1O (centres unmarked) [Compound 39] :: < 500 nM
Cc1cc(O)c(-c2ccc(CC3CCCN(C)C3)nn2)c(F)c1 (centres unmarked) [Compound 7] :: < 500 nM
Cc1cc(C(F)(F)F)cc(O)c1-c1ccc(C(O)C2CCCN(C)C2)nn1 (centres unmarked) [Compound 20] :: < 500 nM
Cc1cc(C(O)C2CN(C)C2)nnc1-c1ccc(C(F)(F)F)cc1O (centres unmarked) [Compound 31] :: < 500 nM
Cc1cc(C(C)(O)C2CCCN(C)C2)nnc1-c1ccc(C(F)(F)F)cc1O (centres unmarked) [Compound 15] :: < 500 nM
Cc1cc([C@H](O)[C@H]2CCCN(C)C2)nnc1-c1ccc(C(F)(F)F)cc1O [Compound 17C] :: < 500 nM
Cc1cc([C@H](O)[C@@H]2CCCN(C)C2)nnc1-c1ccc(C(F)(F)F)cc1O [Compound 17B] :: < 500 nM

Provide each entry's IC50 from the list below.
1. Cc1cc([C@H](O)[C@@H]2CCCNC2)nnc1-c1ccc(C(F)(F)F)cc1O [Compound 40]
2. Cc1cc(-c2ccc(C(F)(F)F)cc2O)nnc1C(O)C1CCCN(C)C1 (centres unmarked) [Compound 12]
3. [2H][C@@](O)(c1cc(C)c(-c2ccc(C(F)(F)F)cc2O)nn1)[C@@H]1CCCN(C)C1 [Compound 18]
4. Cc1cc([C@@H](O)[C@H]2CCCN(C)C2)nnc1-c1ccc(C(F)(F)F)cc1O [Compound 17D]

**A:**
1. < 500 nM
2. 500 to 3000 nM
3. < 500 nM
4. 500 to 3000 nM
